Target: T1, SLF1^tBRCT L142A (UniProt Q9BQI6 1-199, L142A)
T1 construct: SMC5/6 localization factor 1 (SLF1), tandem BRCT repeat, residues 1-199, with L142A; source: E. coli BL21 Rosetta (DE3), purified (same protocol as the wild type)
T1 sequence (looked up): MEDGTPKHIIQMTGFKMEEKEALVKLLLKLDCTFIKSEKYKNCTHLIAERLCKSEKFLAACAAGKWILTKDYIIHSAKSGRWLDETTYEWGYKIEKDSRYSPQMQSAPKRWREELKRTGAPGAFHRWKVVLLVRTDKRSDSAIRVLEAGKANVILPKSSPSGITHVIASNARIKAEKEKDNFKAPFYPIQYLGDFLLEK
Test: ITC; MicroCal ITC 200, 25 °C, 20 mM Tris (pH 7.5), 200 mM sodium chloride; 1.3 mM Rad18 peptide or 6 mM BRCTide injected into 0.1 mM (Rad18 peptides) or 0.2 mM (BRCTide) SLF1^tBRCT in the cell; three independent repeats
Conditions: both partners purified
Square brackets hold non-standard residues; d marks the D form. Ends that are not written are not given here. pS = N[C@@H](COP(=O)(O)O)C(=O)O
assay-endpoint: Kd (nM)
Numeric only. Scale: nM

Record request: Kd value, item SDSCNS[pS]S[pS]DIIRDLLE (peptide, UniProt Q9NS91 436-452, looked up, Rad18, human, Ser442/Ser444-containing region, residues 436-452; also called dually phosphorylated Rad18 peptide; source: synthetic peptide) [Rad18 peptide containing phosphorylated Ser442 and Ser444 (Rad18-2P)]
116
